assay: Hematology assays after oral gavage in CD-1 mice (Example 7); format: in vivo; conditions: 500 mg/kg oral gavage once daily for 4 weeks
attribute.measured: Reticulocytes (%)

> print(dat)
                                  substance  attribute.measured  u  test.value
1  790615 (CCAATGAGAATGCTTC; 3-10-3 cEt gapmer, further chemistry not given here) [compound 790615]       Reticulocytes  %         2.8
2  830037 (antisense CTATTGGCTGATCTGG; 3-10-3 cEt gapmer, further chemistry not given here) [compound 830037]       Reticulocytes  %         3.1
3  829994 (GGAGGCAGGGCCGCGA; 3-10-3 cEt gapmer, further chemistry not given here) [compound 829994]       Reticulocytes  %         3.0
4  830025 (antisense TTTGTAAATCGAAAGC; 3-10-3 cEt gapmer, further chemistry not given here) [compound 830025]       Reticulocytes  %         3.2
5  830121 (AGAATCAAGCCCTGGC; 3-10-3 cEt gapmer, further chemistry not given here) [compound 830121]       Reticulocytes  %         3.0
6  798781 (CGTAAGATTCACAGCA; 3-10-3 cEt gapmer, further chemistry not given here) [compound 798781]       Reticulocytes  %         3.0
